Read-out: E-selectin (Homo sapiens) (UniProt P16581)
Sequence (P16581 whole entry, looked up): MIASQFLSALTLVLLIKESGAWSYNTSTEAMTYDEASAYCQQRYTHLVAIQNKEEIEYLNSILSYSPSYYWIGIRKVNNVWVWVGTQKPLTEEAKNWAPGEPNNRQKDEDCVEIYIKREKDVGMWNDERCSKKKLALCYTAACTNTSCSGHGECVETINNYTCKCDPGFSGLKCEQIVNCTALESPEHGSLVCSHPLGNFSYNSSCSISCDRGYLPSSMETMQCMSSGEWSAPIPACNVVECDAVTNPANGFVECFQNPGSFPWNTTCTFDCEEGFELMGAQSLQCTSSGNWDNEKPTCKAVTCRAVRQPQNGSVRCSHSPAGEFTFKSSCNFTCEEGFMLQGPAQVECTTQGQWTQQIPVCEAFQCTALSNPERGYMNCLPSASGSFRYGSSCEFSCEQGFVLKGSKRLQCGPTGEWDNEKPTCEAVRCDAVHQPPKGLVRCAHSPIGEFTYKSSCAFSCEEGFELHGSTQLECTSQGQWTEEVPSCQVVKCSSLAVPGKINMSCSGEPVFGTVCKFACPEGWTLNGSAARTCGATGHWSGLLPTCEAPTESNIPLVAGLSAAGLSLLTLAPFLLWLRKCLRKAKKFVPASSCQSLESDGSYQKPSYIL
assay.procedure: BSK_LPS_Eselectin: BioMAP Diversity Plus: LPS Assay for Eselectin Biomarker Activity (AID 2283077)
recorded.conditions: primary human HUVEC with PBMC; actives raise or lower the signal
The source made the active and inactive calls. How the source made its calls: active means hit-call score of the fitted dose curve at least 0.9, where 1 is the maximum; inactive means score below 0.9.
Classes used: YES = active, NO = inactive

- compound: "Brc1ccc(Oc2ccccc2)cc1"
  assigned.label: "NO"
- compound: "COc1cc(C=O)cc2c1[C@H](COC(N)=O)[C@]1(OC(C)=O)ON2C[C@H]2[C@@H]1N2C(C)=O"
  assigned.label: "YES"
- compound: "CCOc1cccc(C2(N3CCN(c4ccccc4)CC3)CCC(C)CC2)c1 (stereo not drawn)"
  assigned.label: "NO"
- compound: "Cc1ccc(N)cc1"
  assigned.label: "NO"
- compound: "CCCCOC(=O)c1ccccc1C(=O)OCc1ccccc1"
  assigned.label: "NO"
- compound: "Clc1ccc(Cl)c(Cl)c1"
  assigned.label: "NO"
- compound: "CC(C)(OOC(C)(C)c1ccccc1)c1ccccc1"
  assigned.label: "YES"
- compound: "CCCSC(=O)N(CCC)CCC"
  assigned.label: "NO"
- compound: "O=C(O)C1C2CCC(O2)C1C(=O)O (stereo not drawn)"
  assigned.label: "NO"
- compound: "O=[N+]([O-])c1ccc(Oc2ccc(Cl)cc2Cl)cc1"
  assigned.label: "NO"
- compound: "O=C(Oc1ccc(Br)cc1)N1CCN2CCC1CC2"
  assigned.label: "NO"
- compound: "COP(=S)(OC)SCN1C(=O)c2ccccc2C1=O"
  assigned.label: "NO"
- compound: "CCCCCCCCn1sccc1=O"
  assigned.label: "YES"
- compound: "OCCCBr"
  assigned.label: "NO"
- compound: "CC(C)(C)C(O)(CCc1ccc(Cl)cc1)Cn1cncn1 (stereo not drawn)"
  assigned.label: "NO"
- compound: "Nc1ccc(Cl)cc1N"
  assigned.label: "YES"
- compound: "CN(C)c1ccc(C(=O)c2ccc(N(C)C)cc2)cc1"
  assigned.label: "NO"
- compound: "CCCCCCCCOC(=O)c1ccc(C(=O)OCCCCCCCC)c(C(=O)OCCCCCCCC)c1"
  assigned.label: "NO"
- compound: "[Cl-].[Cl-].[Hg+2]"
  assigned.label: "YES"
- compound: "Nc1ccc(N=Nc2ccccc2)cc1"
  assigned.label: "NO"
- compound: "O=C(Nc1ccccc1)c1ccccc1I"
  assigned.label: "NO"
- compound: "COC(=O)c1ccccc1N"
  assigned.label: "NO"
- compound: "Cn1cc(-c2ccccc2)c(=O)c(-c2cccc(C(F)(F)F)c2)c1"
  assigned.label: "NO"

###

assay.procedure: Tanguay_ZF_120hpf_ActivityScore_legacy: (Legacy) Oregon State University Tanguay Lab 120 Hour Post-fertilization zebrafish Assay Score for Activity (AID 2283742)
Calls of active or inactive are those of the source. Rule for the calls: active = hit-call score of the fitted dose curve at least 0.9, where 1 is the maximum; inconclusive = response in the unintended direction; inactive = score below 0.9.
Classes used: 1.0 = active, 0.0 = inactive

- molecule: "CC(C)(C)OOC(C)(C)CCC(C)(C)OOC(C)(C)C"
  assigned.label: 0.0
- molecule: "CNC(=O)Oc1cccc2c1OC(C)(C)C2"
  assigned.label: 0.0
- molecule: "Clc1ccc(C(c2ccc(Cl)cc2)C(Cl)(Cl)Cl)cc1"
  assigned.label: 0.0
- molecule: "CCCCC(CC)COC(=O)c1ccc(C(=O)OCC(CC)CCCC)c(C(=O)OCC(CC)CCCC)c1 (stereo not drawn)"
  assigned.label: 0.0
- molecule: "N#CC(Br)(Br)C(N)=O"
  assigned.label: 0.0
- molecule: "N#CC(Br)Br"
  assigned.label: 0.0
- molecule: "Cc1cccc(N)c1N"
  assigned.label: 1.0
- molecule: "c1ccc2c(c1)-c1cccc3cccc-2c13"
  assigned.label: 0.0
- molecule: "CCC[CH2][Sn]([Cl])([CH2]CCC)[CH2]CCC"
  assigned.label: 1.0
- molecule: "CN(C)[C@@H]1C(=O)C(C(N)=O)=C(O)[C@@]2(O)C(=O)C3=C(O)c4c(O)cccc4[C@@](C)(O)[C@H]3C[C@@H]12"
  assigned.label: 0.0
- molecule: "[As]#[In]"
  assigned.label: 0.0
- molecule: "CC(C)(C)OOC(=O)c1ccccc1"
  assigned.label: 0.0
- molecule: "CCNS(=O)(=O)C(F)(F)C(F)(F)C(F)(F)C(F)(F)C(F)(F)C(F)(F)C(F)(F)C(F)(F)F"
  assigned.label: 1.0

###

Read-out: Urokinase-type plasminogen activator receptor (uPAR), PLAUR (gene 5329)
assay.procedure: BSK_4H_uPAR: BioMAP Diversity Plus: 4H Assay for Urokinase-type plasminogen activator receptor (uPAR) Biomarker Activity (AID 2283030)
recorded.conditions: primary human endothelial cells (HUVEC); actives raise or lower the signal
The source made the active and inactive calls. How the source made its calls: active means hit-call score of the fitted dose curve at least 0.9, where 1 is the maximum; inactive means score below 0.9.
result.type: AC50

- compound: "Cc1cc(N=Nc2ccccc2C)ccc1N"
  result.type: "AC50"
  observed: "1.95 µM (active)"
- compound: "CCOc1cccc(C2(N3CCN(c4ccccc4)CC3)CCC(C)CC2)c1 (centres undefined)"
  result.type: "AC50"
  observed: "inactive"
- compound: "CN(C)c1ccc(C(=O)c2ccc(N(C)C)cc2)cc1"
  result.type: "AC50"
  observed: "inactive"
- compound: "ClC1=C(Cl)C2(Cl)C3C(Cl)C=CC3C1(Cl)C2(Cl)Cl (centres undefined)"
  result.type: "AC50"
  observed: "34.7 µM (active)"

###

Read-out: Lipoprotein lipase (LPL), LPL (gene 4023)
assay.procedure: LTEA_HepaRG_LPL: Life Technologies and Expression Analysis (LTEA) Assay for Lipoprotein lipase (LPL) using HepaRG (AID 2283515)
recorded.conditions: mRNA level, 48 h; actives raise or lower the signal
Activity calls are given as the source filed them. The calls were made as follows: active = hit-call score of the fitted dose curve at least 0.9, where 1 is the maximum; inactive = score below 0.9.
Classes used: active, inactive

- compound: "Clc1ccc(Cl)c(Cl)c1"
  assigned.label: "active"
- compound: "Brc1ccc(Oc2ccccc2)cc1"
  assigned.label: "inactive"
- compound: "CN(C)[C@@H]1C(=O)C(C(N)=O)=C(O)[C@@]2(O)C(=O)C3=C(O)c4c(O)cccc4[C@@](C)(O)[C@H]3C[C@@H]12"
  assigned.label: "inactive"
- compound: "C[C@]12C=CC3=C4CCC(=O)C=C4CC[C@H]3[C@@H]1CC[C@@H]2O"
  assigned.label: "inactive"
- compound: "CCOC(=O)[C@]1(c2ccccc2)Oc2ccccc2[C@@H]1N"
  assigned.label: "active"
- compound: "O=C(N[C@H](c1ccccc1)[C@@H]1CN2CCC1CC2)c1c(Cl)ccc(C(F)(F)F)c1Cl"
  assigned.label: "active"
- compound: "CCCCCCCCn1sccc1=O"
  assigned.label: "inactive"
- compound: "CN(C)c1ccc(C(=O)c2ccc(N(C)C)cc2)cc1"
  assigned.label: "inactive"
- compound: "Cc1cccc(N)c1N"
  assigned.label: "active"
- compound: "CC(O)CCO (configuration not stated)"
  assigned.label: "inactive"
- compound: "CCC[CH2][Sn]([Cl])([CH2]CCC)[CH2]CCC"
  assigned.label: "inactive"
- compound: "Clc1ccc(C(c2ccc(Cl)cc2)C(Cl)Cl)cc1"
  assigned.label: "inactive"

###

Read-out: Heat shock 70 kDa protein 1 (HSPA1A), gene 3303
assay.procedure: LTEA_HepaRG_HSPA1A: Life Technologies and Expression Analysis (LTEA) Assay for Heat shock 70 kDa protein 1 (HSPA1A) using HepaRG (AID 2283502)
recorded.conditions: mRNA level, 48 h; actives raise or lower the signal
Experimental: LTEA_HepaRG is a cell based, multiplexed-readout assay that uses HepaRG, a human liver cell line, with measurements taken at 48 hours after chemical dosing on a 96-well plate.LTEA_HepaRG_HSPA1A is one of 102 assay component(s) measured in the LTEA HepaRG cell culture assay. It is a marker of Oxidative Stress.Data from the assay component LTEA_HepaRG_HSPA1A was analyzed into 1 endpoint. […]
Calls of active or inactive are those of the source. The calls were made as follows: active = hit-call score of the fitted dose curve at least 0.9, where 1 is the maximum; inactive = score below 0.9.
Classes used: class 1 for active, class 0 for inactive

- compound: "OCCCl"
  assigned.label: "class 0"
- compound: "COc1cc(C=O)cc2c1[C@H](COC(N)=O)[C@]1(OC(C)=O)ON2C[C@H]2[C@@H]1N2C(C)=O"
  assigned.label: "class 0"
- compound: "O=[N+]([O-])C(Br)(CO)CO"
  assigned.label: "class 0"
- compound: "C[C@]12C=CC3=C4CCC(=O)C=C4CC[C@H]3[C@@H]1CC[C@@H]2O"
  assigned.label: "class 0"
- compound: "O=P(OCCCl)(OCCCl)OCCCl"
  assigned.label: "class 1"
- compound: "c1ccc(N=Nc2ccccc2)cc1"
  assigned.label: "class 0"
- compound: "CCC(C)c1ccc(O)cc1 (stereo not drawn)"
  assigned.label: "class 0"
- compound: "CCCCCOC(=O)c1ccccc1C(=O)OCCCCC"
  assigned.label: "class 0"
- compound: "CCOc1cccc(C2(N3CCN(c4ccccc4)CC3)CCC(C)CC2)c1 (stereo not drawn)"
  assigned.label: "class 0"
- compound: "CCCCC(CC)COC(=O)c1ccc(C(=O)OCC(CC)CCCC)c(C(=O)OCC(CC)CCCC)c1 (stereo not drawn)"
  assigned.label: "class 0"
- compound: "CC(C)(C)OOC(C)(C)CCC(C)(C)OOC(C)(C)C"
  assigned.label: "class 0"
- compound: "CCN(CC)N=O"
  assigned.label: "class 0"
- compound: "CN(C)c1ccccc1"
  assigned.label: "class 0"
